metric.name: melting point

The examples below pair each entry with its known result.
[[record]]
molecule = "CCOC(=O)c1cc(-c2cc(C)on2)[nH]n1"
metric_name = "melting point"
observed = "149 to 151 °C"

[[record]]
molecule = "N#CCc1ccc(NC(=O)C(F)(F)C(F)(F)C(F)(F)C(F)(F)F)cc1"
metric_name = "melting point"
observed = "126 to 128 °C"

[[record]]
molecule = "N=C(NO)C1=Cc2cc(O)c(O)cc2CC1"
metric_name = "melting point"
observed = "183 to 185 °C"

[[record]]
molecule = "c1ccc(CNc2cc(N3CCCC3)nc(N3CCCC3)n2)cc1"
metric_name = "melting point"
observed = "70 to 72 °C"

[[record]]
molecule = "CCCCCCS(=O)(=O)c1nn2c(=O)cc(-c3ccccc3)nc2s1"
metric_name = "melting point"
observed = "131 to 134 °C"

[[record]]
molecule = "CCCCc1oc2ccccc2c1C(O)c1cc(I)c(OCCN(CC)CC)c(I)c1 (stereo not given)"
metric_name = "melting point"
observed = "106 to 107 °C"

[[record]]
molecule = "CCCc1c2c(c([N+](=O)[O-])c3c(=O)cc(C(=O)O)oc13)CCCC2"
metric_name = "melting point"
observed = "265 to 267 °C"

[[record]]
molecule = "O=C(c1ccc2c(=O)nc(-c3ccccn3)sc2c1)N1CCCC1"
metric_name = "melting point"
observed = "174 °C"


Value of measured melting point for the entry CCCCCCCCCCCC#Cc1ccccc1C=C(C(=O)OCC)P(=O)(O)O : 68 to 69 °C

Value of measured melting point for the entry CCCCOC(=O)C(CC(C)C)NC(=O)c1cc([N+](=O)[O-])cc([N+](=O)[O-])c1 (stereo not given) : 95 to 98 °C

---

metric.name: melting point

The examples below pair each entry with its known result.
[[record]]
compound = "COC(=O)[C@@H]1[C@H](c2ccccc2)CC(=O)N1C"
observed = "100 °C"

[[record]]
compound = "CC(c1ccc(-c2ccccc2)c(F)c1)c1cc(N(C)C(=S)NC(=O)c2ccccc2)on1 (centres undefined)"
observed = "115 to 116 °C"


Value of measured melting point for the entry COc1cc(Cl)cc(CC#N)c1Cl : 53 to 57 °C

Value of measured melting point for the entry O=C(O)c1ccc2cccc(Br)c2c1 : 265 to 266 °C

Value of measured melting point for the entry COc1ccc(CC(CCCC(C#N)(c2ccc(OC)c(OC)c2)C(C)C)[N+](=O)[O-])cc1OC (centres undefined) : 107 to 110 °C

Value of measured melting point for the entry Cc1nsc(NC(=O)C(C)c2ccc3oc(-c4cccc(Cl)c4Cl)nc3c2)c1Cl (centres undefined) : 158 to 161 °C

Value of measured melting point for the entry CCOC(=O)/C=C/c1ccc2c(c1)nc(N)c1nc(CC)n(CC3CCOCC3)c12 : 209 to 210 °C

Value of measured melting point for the entry COCN1C(=O)N(c2ccc(C#N)c(OC)c2)C(=O)C1(C)c1ccc(O)cc1 (centres undefined) : 141 °C

Value of measured melting point for the entry Nc1c(Cl)cc(C(O)CNCCCCCCOCCOCCc2ccccn2)cc1Cl (centres undefined) : 45.5 to 46.5 °C

Value of measured melting point for the entry COC(=O)[C@@H]1O[C@@H](c2ccccc2)N(NS(=O)(=O)c2c3ccccc3cc3ccccc23)[C@H]1c1ccccc1 : 71 to 73 °C

Value of measured melting point for the entry CCOC(=O)C1=C(COCCNS(N)(=O)=O)NC(C)=C(C(=O)OC)C1c1cccc(Cl)c1Cl (centres undefined) : 89 to 90 °C

Value of measured melting point for the entry Cc1ccc(=NC(=O)C(F)(F)F)n(-c2cccc(C(F)(F)F)c2)c1 : 115 °C

Value of measured melting point for the entry O=S1(=O)NCCNc2ccc(Oc3cccc(CO)c3)cc21 : 146 °C

Value of measured melting point for the entry O=S(=O)(c1ccc(C(F)(F)F)cc1)N1c2cc(F)c(F)cc2-c2[nH]ncc2[C@H]1C1CC1 : 137 to 138 °C

Value of measured melting point for the entry Cc1ccc(C(=O)Nc2cccc(C(F)(F)F)c2)cc1-c1ccc2cnncc2c1 : 270 to 272 °C

Value of measured melting point for the entry CCOC(=O)CN1C(=O)C2=C(c3ccccc3)N(CC(=O)OCC)C(=O)C2=C1c1ccccc1 : 204 to 208 °C

Value of measured melting point for the entry Cc1oc2ccc(N)cc2c(=O)c1C : 202 to 204 °C

Value of measured melting point for the entry CC(C)Cn1nc(C(=O)c2cccc(O)c2)c2ccccc21 : 108 to 110 °C

Value of measured melting point for the entry CC1=C(Cc2ccc(Cl)cc2)C(=O)C2C=CC=CC2C1=O (centres undefined) : 134 to 135 °C

Value of measured melting point for the entry COCCO[C@@H]1c2ccn3c(-c4ccccc4)c(C)nc3c2N[C@H](c2ccccc2)[C@H]1O : 190 to 192 °C

Value of measured melting point for the entry CCCCCCCCCCCCCCCCOCC(O)CN1CCC(C#N)(c2ccccc2)CC1 (centres undefined) : 69 to 70 °C

Value of measured melting point for the entry C[Si](C)(C)C#Cc1ccc(I)cc1 : 57 to 59 °C

Value of measured melting point for the entry CSC(C#N)=C1CCN(c2ccc(N3C[C@H](CNC(C)=O)OC3=O)cc2F)CC1 : 205 to 207 °C

Value of measured melting point for the entry CCOC(=O)CCc1ccc2c(CCC(=O)OCC)c(O)ccc2n1 : 74 to 76 °C

Value of measured melting point for the entry O=[N+]([O-])c1cc(Br)ccc1Nc1cccc(-n2ccnc2)n1 : 194 to 195 °C

Value of measured melting point for the entry Cc1nc2c3c(ccn2c1C)C(O)CC(c1ccccc1)N3 (centres undefined) : 210 to 212 °C

Value of measured melting point for the entry O=C(NCCC12CC3CC(CC(C3)C1)C2)c1cccc(Cl)c1Cl : 158 to 159 °C

---

Parameter: melting point. Scope: all listed entries.

The examples below pair each entry with its known result.
[[record]]
molecule = "Cc1ccc(S(=O)(=O)OCCn2c(=NC(=O)C(F)(F)F)sc3cc(C(F)(F)F)ccc32)cc1"
observed = "163 °C"

[[record]]
molecule = "COCCn1cc(C(=O)NCc2ccc(Cl)cc2)c(=O)c2cc(CCl)sc21"
observed = "192 to 193 °C"


Value of measured melting point for the entry COC1CC2(C)C(CCC3C4CC=C(C(C)=O)C4(C)CCC32)CC1O (centres undefined) : 183 to 187 °C

Value of measured melting point for the entry Cc1cc(-c2cnn3c(C(F)(F)F)cc(-c4ccc(C(F)(F)F)c(OCC(F)(F)F)c4)nc23)ccn1 : 201 °C

Value of measured melting point for the entry COC(=O)c1ccc(CC(C)NCC(O)c2ccc(O)c(C)c2)cc1 (centres undefined) : 103 to 107 °C

---

Parameter: melting point. Scope: all listed entries.

The examples below pair each entry with its known result.
[[record]]
compound = "Cc1ccc(-n2nc3c(cc2=O)CCc2sc(C(C)O)cc2-3)cc1 (stereo not given)"
observed = "146 to 148 °C"

[[record]]
compound = "CCCCn1c(=O)c2c(NC)n[nH]c2n(Cc2ccccc2[N+](=O)[O-])c1=O"
observed = "> 300 °C"

[[record]]
compound = "Cc1ncsc1C(=O)Nc1ccc(-n2nc(C(F)(F)F)c(Cl)c2C2CC2)cc1"
observed = "161 to 164 °C"

[[record]]
compound = "O=C(NCCc1ccccc1Cl)c1c(Cl)ccc2nc(N3CC[C@H](NCCO)C3)ccc12"
observed = "170 to 172 °C"


// next entry
Value of measured melting point for the entry CC(C)c1nc(CN=[N+]=[N-])n(C)c1Sc1cc(Cl)cc(Cl)c1 : 84 to 85 °C

---

metric.name: melting point

Value of measured melting point for the entry Cc1cc([N+](=O)[O-])c(Cl)c([N+](=O)[O-])c1S(N)(=O)=O : 205 to 215 °C

---

Parameter: melting point. Scope: all listed entries.

The examples below pair each entry with its known result.
[[record]]
compound = "COc1ccc(C(=O)c2ccc(OCc3nc(-c4cccc(OS(C)(=O)=O)c4)oc3C)cc2)c(OC(C)(C)C(=O)O)c1"
metric_name = "melting point"
observed = "182 to 183 °C"

[[record]]
compound = "CN(C)Cc1ccc(C(=O)Nc2nc(-c3ccco3)c(C(=O)C3CCOCC3)s2)cc1"
metric_name = "melting point"
observed = "109 to 112 °C"

[[record]]
compound = "Cc1ccnc2c(O)cccc12"
metric_name = "melting point"
observed = "135 to 136 °C"

[[record]]
compound = "FC(F)(F)c1ccc2[nH]c(-c3csc(Cc4c(Cl)cccc4Cl)n3)nc2c1"
metric_name = "melting point"
observed = "187 to 189 °C"


Value of measured melting point for the entry C(=C\c1nc(COc2ccc(CCCn3nccn3)cc2)co1)/c1ccccc1 : 103 to 104 °C

Value of measured melting point for the entry Cc1cc(SC(C)C)c(NC(=O)CCCCCCCCSc2nc3cccc(C(F)(F)F)c3o2)c(SC(C)C)n1 : 97 to 98 °C

Value of measured melting point for the entry Cc1cc(-c2cccc(NC(=O)N[C@@H]3c4cc(C#N)ccc4OC(C)(C)[C@H]3O)c2)nn1C : 120 to 130 °C

Value of measured melting point for the entry CN(C)CCN(C)C(=O)c1ccc2cc(-c3csc(N(C)S(=O)(=O)c4ccccc4)n3)c(=O)[nH]c2c1 : 144 to 148 °C

Value of measured melting point for the entry CSc1ccc(C=C2C(C)=C(CC(=O)O)c3cc(F)ccc32)cc1 : 187 to 188 °C

Value of measured melting point for the entry Nc1cc2c(Nc3ccc(Cl)c(Br)c3)ncnc2cn1 : 271 to 274 °C

Value of measured melting point for the entry C=CCNc1nc(NCC=C)nc(N2CCN(C(=O)n3ccnc3)CC2)n1 : 78 to 82 °C

Value of measured melting point for the entry CN(C)CCCOc1cccc(CC(=O)c2cccc(OCCCN(C)C)c2)c1 : 102 to 105 °C

Value of measured melting point for the entry CCOC(=O)C(C#N)(CCN1CCOCC1)c1ccc(C(F)(F)F)cc1 (centres undefined) : 96 to 97 °C

Value of measured melting point for the entry COC(=O)[C@H]1NC(=O)[C@H]1NC(=O)Cc1csc(NC(=O)CCl)n1 (relative stereo) : 120 to 122 °C

Value of measured melting point for the entry CC1=C(C(=O)OC(C)(C)C)C(c2ccccc2I)C(C(=O)OC(C)(C)C)=C(C)N1 : 184 to 185 °C

Value of measured melting point for the entry CCn1cc(C(C)=O)c(=O)c2ccc(-c3ccncc3)cc21 : 231 to 233 °C

Value of measured melting point for the entry CCCCN(CCCC)c1ccc(C=CC=CC=CC2=C(C#N)C(=C(C#N)C#N)OC2(c2ccccc2)C(F)(F)F)c(OC)c1 (centres undefined) : 208 to 210 °C

Value of measured melting point for the entry Cc1nc2ncc(C(=O)NCc3ccc(Cl)cc3)c(O)c2cc1I : 276 to 277 °C

Value of measured melting point for the entry COC(=O)c1ccc(O)cc1NC(=O)c1ccc(C(C)(C)C)cc1 : 146 to 148 °C
